# System: M14 melanoma
# assay method text: NCI-60 one-dose screen, 48 h (100 = growth as untreated, 0 = no growth, -100 = all killed)
# condition description: 10 µM unless noted
Compounds without any hit were thinned out: in the full panel of roughly 83,000, 20% have a hit. Active and inactive are the calls of the source. How the source made its calls: active means growth percent below 10; inactive means the rest.
Known growth of a selection of compounds

[
  {
    "compound": "CC[C@H](C)[C@H](NC(=O)[C@H]1CCCCN1C)C(=O)N(C)[C@H](C[C@@H](OC(C)=O)c1nc(C(=O)N[C@@H](Cc2ccccc2)C[C@H](C)C(=O)OC)cs1)C(C)C",
    "growth": "3.87% (active)"
  },
  {
    "compound": "CCOC(=O)CCC(NC(=O)C(Cc1ccc(N(CCCl)CCCl)cc1)NC=O)C(=O)OCC (centres undefined)",
    "growth": "-62.9% (active)"
  },
  {
    "compound": "COc1cccc2c1c(C(=O)C(=O)Nc1ccn[nH]1)cn2Cc1ccc(F)cc1",
    "growth": "101% (inactive)"
  }
]

compound "O=C(Nc1ccc([N+](=O)[O-])cc1)C(Cl)(Cl)Cl" , growth observed: 94.1% (inactive)

---

# System: SF-295 CNS
# assay method text: NCI-60 one-dose screen, 48 h (100 = growth as untreated, 0 = no growth, -100 = all killed)
# condition description: 10 µM unless noted
Compounds without any hit were thinned out: in the full panel of roughly 83,000, 20% have a hit.
Rule: growth of 90% or more gives class 1; anything lower gives class 0.

Query block: Could you verify whether the entry "COC(=O)[C@@H](C)C[C@H](Cc1ccc(F)cc1)NC(=O)c1csc([C@@H](C[C@H](C(C)C)N(C)C(=O)[C@@H](NC(=O)[C@H]2CCCCN2C)C2CC2)OC(C)=O)n1" shows growth of no less than 90%?
Result block: class 0

Query block: Could you verify whether the entry "CCOC(=O)[C@@H](C)C[C@H](Cc1ccccc1)NC(=O)c1csc([C@@H](C[C@H](C(C)C)N(C)C(=O)[C@@H](NC(=O)[C@H]2CCCCN2C)C(C)(C)CC)OC(C)=O)n1" shows growth of no less than 90%?
Result block: class 0

Query block: Could you verify whether the entry "CC1(C)N=C(N)N=C(N)N1c1ccc(CCC(=O)Nc2ccc(S(=O)(=O)F)cc2)c(Cl)c1" shows growth of no less than 90%?
Result block: class 0

Query block: Could you verify whether the entry NC(=O)CNc1ccc([As]=[As]c2ccc(NCC(N)=O)cc2)cc1 (stereo unspecified) shows growth of no less than 90%?
Result block: class 1

Query block: Could you verify whether the entry "CC(=O)O[C@H]1CC[C@@]2(C)C(=CC[C@H]3[C@@H]4C[C@@H](N5CC5)[C@H](C(C)=O)[C@@]4(C)CC[C@@H]32)C1" shows growth of no less than 90%?
Result block: class 1

Query block: Could you verify whether the entry CN1CC(=O)N(O)C1(C)c1cccnc1 (stereo unspecified) shows growth of no less than 90%?
Result block: class 1

Query block: Could you verify whether the entry "COC(=O)[C@@H](C)C[C@H](Cc1ccccc1)NC(=O)c1csc([C@@H](C[C@H](C(C)C)N(C)C(=O)[C@@H](NC(=O)CN(C)C)C2CC2)OC(C)=O)n1" shows growth of no less than 90%?
Result block: class 0

Query block: Could you verify whether the entry "CC(=O)OC[C@]1(C)C=C2C(=O)[C@](C)(O)C3(CC3)C(C)=C2[C@H]1OC(=O)N(C)CCN(C)C(=O)OC(C)(C)C" shows growth of no less than 90%?
Result block: class 0

Query block: Could you verify whether the entry "C[Se]C(=O)c1ccccc1OC(C)=O" shows growth of no less than 90%?
Result block: class 0

Query block: Could you verify whether the entry "COc1ccc(Nc2ccnc3cc(Cl)ccc23)cc1CN(CCCl)CCCl" shows growth of no less than 90%?
Result block: class 0

Query block: Could you verify whether the entry "CCC(=O)Nc1ccc(Cl)c(Cl)c1" shows growth of no less than 90%?
Result block: class 1

Query block: Could you verify whether the entry CCCCCN(CCCCC)CC(O)c1cc(Cl)ccc1OC (stereo unspecified) shows growth of no less than 90%?
Result block: class 0

Query block: Could you verify whether the entry CCOP1(=O)CC(C)=C(Cl)C(P(=O)(OCC)OCC)C1 (stereo unspecified) shows growth of no less than 90%?
Result block: class 1

Query block: Could you verify whether the entry "CCOP(=O)(Nc1ccc2c(c1)/C(=N/NC(N)=S)c1ccccc1-2)OCC" shows growth of no less than 90%?
Result block: class 1

Query block: Could you verify whether the entry "C[C@]12CCc3sc(NCCc4ccccc4)nc3C1=CC[C@@H]1[C@@H]2CC[C@]2(C)C(=O)CC[C@@H]12" shows growth of no less than 90%?
Result block: class 0

Query block: Could you verify whether the entry CC(CC1CCCCC1)NCc1ccccc1 (stereo unspecified) shows growth of no less than 90%?
Result block: class 1

Query block: Could you verify whether the entry O=C(CC1(O)C(=O)N(Cc2ccccc2)c2ccc(Br)cc21)c1ccc(C(=O)NCC2CCC3(CC2)OOC2(CCCCC2)OO3)cc1 (stereo unspecified) shows growth of no less than 90%?
Result block: class 0

Query block: Could you verify whether the entry "CCn1nccc1NC(=O)C(=O)c1cn(Cc2ccc(F)cc2)c2cccc(OC)c12" shows growth of no less than 90%?
Result block: class 1

Query block: Could you verify whether the entry "CC[C@H](C)[C@@H]([C@@H](CC(=O)N1CCC[C@H]1[C@H](OC)[C@@H](C)C(=O)N[C@H](C)[C@@H](O)c1ccccc1)OC)N(C)C(=O)[C@@H](NC(=O)[C@@H](NC)C(C)C)C(C)C" shows growth of no less than 90%?
Result block: class 0

Query block: Could you verify whether the entry "C#Cc1ccc2c(c1)C(c1ccccc1F)=NCC(=O)N2C" shows growth of no less than 90%?
Result block: class 0

Query block: Could you verify whether the entry "COC(=O)[C@@H](C)C[C@H](Cc1ccccc1)NC(=O)c1csc([C@@H](C[C@H](C(C)C)N(C)C(=O)[C@@H](NC(=O)[C@H]2CCCCN2C)C(C(F)(F)F)C(F)(F)F)OC(C)=O)n1" shows growth of no less than 90%?
Result block: class 0

Query block: Could you verify whether the entry "CC[CH2][Sn]([Cl])([Cl])[CH2]CC" shows growth of no less than 90%?
Result block: class 1

Query block: Could you verify whether the entry CNC12C3C4C1C1C2C3C41C(=O)N[C@H](C(=O)N(C)[C@H](C[C@@H](OC(C)=O)c1nc(C(=O)N[C@@H](Cc2ccccc2)C[C@H](C)C(=O)OC)cs1)C(C)C)C1CC1 (stereo partly specified) shows growth of no less than 90%?
Result block: class 0

Query block: Could you verify whether the entry CN1C(=O)C23CC4(C56CC78SSC(CO)(C(=O)N7C5Nc5ccccc56)N(C)C8=O)c5ccccc5NC4N2C(=O)C1(CO)SS3 (stereo unspecified) shows growth of no less than 90%?
Result block: class 0

Query block: Could you verify whether the entry "[Cl][Hg][c]1cc[c]([Hg][Cl])o1" shows growth of no less than 90%?
Result block: class 1

Query block: Could you verify whether the entry "C=CC[Se]C(=O)c1ccccc1OC(C)=O" shows growth of no less than 90%?
Result block: class 0

---

# System: CAKI-1 renal
# assay method text: NCI-60 one-dose screen, 48 h (100 = growth as untreated, 0 = no growth, -100 = all killed)
# condition description: 10 µM unless noted
The panel holds about 83,000 compounds, 20% with a hit somewhere; the sample as a whole holds those more often.
# note: boundary value 70% maps to not satisfied; growth below it maps to satisfied

Previously resolved entries follow.
[
  {
    "molecule": "COC(=O)[C@H](Cc1ccccc1)NC(=O)c1csc([C@@H](C[C@H](C(C)C)N(C)C(=O)[C@@H](NC(=O)[C@H]2CCCCN2C)C2CC2)OC(C)=O)n1",
    "class": "satisfied"
  },
  {
    "molecule": "O=C(CCCC1CCCCC1)OCC(Cl)(Cl)Cl",
    "class": "not satisfied"
  },
  {
    "molecule": "COc1ccc(/C=C\\c2cc(OC)c(OC)c(OC)c2)cc1OCC(=O)Nc1nc2ccc(C(F)(F)F)cc2s1",
    "class": "satisfied"
  }
]

Query block: Dear reviewer, please state whether "O=Cc1cn(Cc2ccc(Cl)cc2)c2ccccc12" has growth strictly beneath 70%.
Result block: satisfied

Query block: Dear reviewer, please state whether "OCc1ccc2c(c1)OCO2" has growth strictly beneath 70%.
Result block: not satisfied

Query block: Dear reviewer, please state whether "CCCCCCCOC(C(=O)OCCN(CC)CC)(c1ccccc1)c1ccccc1" has growth strictly beneath 70%.
Result block: satisfied

Query block: Dear reviewer, please state whether O=C(O)C(O)C(O)C1[O][Sb]([c]2ccc([N+](=O)[O-])cc2)[O]C1CO (stereo not drawn) has growth strictly beneath 70%.
Result block: not satisfied

Query block: Dear reviewer, please state whether CC(C)COC(C[N+](=O)[O-])C(Cl)(Cl)Cl (stereo not drawn) has growth strictly beneath 70%.
Result block: not satisfied

Query block: Dear reviewer, please state whether "CC(=O)O[C@@H]1CC[C@]2(C)[C@H]3CC[C@]4(C)C(=O)CC[C@H]4[C@@H]3C[C@@H]3SC(N)=N[C@@]32C1" has growth strictly beneath 70%.
Result block: satisfied

Query block: Dear reviewer, please state whether "COc1cc2c(cc1OCCCn1c(-c3ccccn3)nc3ccccc31)N=C[C@@H]1CCCN1C2=O" has growth strictly beneath 70%.
Result block: satisfied

Query block: Dear reviewer, please state whether "C[C@]12CCc3sc(-c4ccccc4O)nc3C1=CC[C@@H]1[C@@H]2CC[C@]2(C)C(=O)CC[C@@H]12" has growth strictly beneath 70%.
Result block: not satisfied

Query block: Dear reviewer, please state whether "N#C[Se]Cc1cc(-c2ccccc2)n(-c2ccc(S(N)(=O)=O)cc2)n1" has growth strictly beneath 70%.
Result block: satisfied

Query block: Dear reviewer, please state whether COc1ccc(C2=CC(c3ccc(OC)c(OC)c3)c3c(c4ccccc4oc3=O)O2)cc1OC (stereo not drawn) has growth strictly beneath 70%.
Result block: satisfied

Query block: Dear reviewer, please state whether "O=C1N[C@@H]2[C@@H](O)[C@@H](O)[C@H](O)C[C@H]2c2cc3c(c(O)c21)OCO3" has growth strictly beneath 70%.
Result block: satisfied

Query block: Dear reviewer, please state whether O=C1C2CC=CCC2C(=O)N1SC(Cl)(Cl)Cl (stereo not drawn) has growth strictly beneath 70%.
Result block: not satisfied
